Reported IC50 values are given for each entry in this list.
target: RSK2 (Homo sapiens, UniProt P51812)
Sequence (P51812 68-327 limits assumed): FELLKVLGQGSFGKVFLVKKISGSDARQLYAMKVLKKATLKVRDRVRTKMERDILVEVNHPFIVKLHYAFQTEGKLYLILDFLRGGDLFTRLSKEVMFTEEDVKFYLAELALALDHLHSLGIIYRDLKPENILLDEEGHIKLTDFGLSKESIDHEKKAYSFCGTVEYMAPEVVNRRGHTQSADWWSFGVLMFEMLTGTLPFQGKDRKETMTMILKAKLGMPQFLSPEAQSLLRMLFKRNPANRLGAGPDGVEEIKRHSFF
MEASURED_QUANTITY: IC50

smiles_representation=N/C(=N/N=C/c1cccnc1)N[N+](=O)[O-] measured_result="> 100 µM"
smiles_representation=C/C(=N\NC1=NCCN1)c1ccc(NC(=O)c2cc3cccc([N+](=O)[O-])c3[nH]2)cc1 measured_result="> 100 µM"
smiles_representation=OCC=CCO measured_result="> 100 µM"
